Assignment: determine reported IC50 for the given compounds.
target.under.test: PD-1/PD-L1 interaction (PDL1-6×His protein, PD1-Fc-Avi-Biotin protein) (Homo sapiens)
method.summary: PDL1/PD1 Binding Assay
condition.set: Table C-1; 0.3 nM PDL1, 2.5 nM PD1; read-out: Biological Data Biochem PD-1/PD-L1

Request: Quick one: IC50 of COc1nc(-c2cccc(-c3cccc(-c4cc5c(c(OC)n4)[C@@H](NC[C@@H]4CCC(=O)N4)CC5)c3Cl)c2F)cc2c1[C@@H](NC[C@@H]1CCC(=O)N1)CC2 [Compound L-8] ?
Response: ≤ 10 nM

Request: Requested read-out: IC50. Entry: COc1cc(-c2cccc(-c3cccc(-c4cc5c(c(OC)c4)[C@H](N4CC(C(=O)O)C4)CC5)c3Cl)c2Cl)cc2c1[C@H](N1CC(C(=O)O)C1)CC2 (single isomer, unassigned) [Compound M-4B]
Response: 10 to 100 nM

Request: What value of measured IC50 is listed for COc1nc(-c2cccc(-c3cccc(-c4cc5c(c(OC)n4)[C@H](N4CC6(CN(C(C)=O)C6)C4)CC5)c3Cl)c2F)cc2c1[C@H](N1CC3(CN(C(C)=O)C3)C1)CC2 (single isomer, unassigned) [Compound L-11] ?
Response: ≤ 10 nM

Request: IC50 for COc1nc(-c2cccc(-c3cccc(-c4cc5c(c(OC)n4)[C@@H](N4CC6(CCC(=O)N6)C4)CC5)c3Cl)c2F)cc2c1[C@@H](N1CC3(CCC(=O)N3)C1)CC2 (single isomer, unassigned) [Compound L-9] ?
Response: ≤ 10 nM

Request: Quick one: IC50 of COCCN1CCc2c(cc(-c3cccc(-c4cccc(-c5cc6c(c(OC)n5)CCN(CCOC)C6)c4Cl)c3Cl)nc2OC)C1 [Compound O-1] ?
Response: ≤ 10 nM

* * *

Field: IC50. Provide a value for each of the compounds that follow.
target.under.test: PD-1/PD-L1 interaction (PDL1-6×His protein, PD1-Fc-Avi-Biotin protein) (Homo sapiens, UniProt Q9NZQ7)
Sequence (Q9NZQ7 19-238 limits assumed): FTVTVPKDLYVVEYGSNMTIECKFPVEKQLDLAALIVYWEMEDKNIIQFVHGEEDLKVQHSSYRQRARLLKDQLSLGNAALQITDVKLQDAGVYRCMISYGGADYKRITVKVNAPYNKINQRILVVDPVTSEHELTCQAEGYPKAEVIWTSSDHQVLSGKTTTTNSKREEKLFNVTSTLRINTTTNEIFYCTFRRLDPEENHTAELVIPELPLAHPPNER
method.summary: PDL1/PD1 Binding Assay
condition.set: Table C-1; 0.3 nM PDL1, 2.5 nM PD1; read-out: Biological Data Biochem PD-1/PD-L1

Request: # lookup: IC50 of COc1nc(-c2cccc(-c3cccc(-c4cc5c(c(OC)n4)[C@@H](N4CC6(CN(C(C)=O)C6)C4)CC5)c3Cl)c2F)cc2c1[C@@H](N1CC3(CN(C(C)=O)C3)C1)CC2 (single isomer, unassigned)
Response: ≤ 10 nM

Request: Would you kindly share the measured IC50 for COc1cc(-c2cccc(-c3cccc(-c4cc5c(c(OC)c4)C(N4CC(C(=O)O)C4)CC5)c3Cl)c2Cl)cc2c1C(N1CC(C(=O)O)C1)CC2 (centres unmarked) ?
Response: ≤ 10 nM

Request: Consider the compound CCOC(=O)C1CN([C@H]2CCc3cc(-c4cccc(-c5cccc(-c6ccc7c(c6)CC[C@@H]7N6CC(C(=O)OCC)C6)c5Cl)c4Cl)ccc32)C1 (single isomer, unassigned) and give its measured IC50.
Response: ≤ 10 nM

Request: State the recorded IC50 for this entry: CCOC(=O)C1CN([C@@H]2CCc3cc(-c4cccc(-c5cccc(-c6cc7c(c(OC)c6)[C@H](N6CC(C(=O)OCC)C6)CC7)c5Cl)c4Cl)cc(OC)c32)C1 (single isomer, unassigned)
Response: 100 to 1000 nM

Request: Please give the measured IC50 for this compound: CCOC(=O)C1CN([C@H]2CCc3cc(-c4cccc(-c5cccc(-c6ccc7c(c6)CC[C@@H]7N6CC(C(=O)O)C6)c5Cl)c4Cl)ccc32)C1 (single isomer, unassigned)
Response: ≤ 10 nM

Data origin, for the record: patent US11760764B2
